Each entry below carries its reported IC50.
- ASSAYED TARGET: HLA-DRB1*1301 (human)
- ASSAY PROTOCOL: competition binding
- STATED CONDITIONS: modification not given

The binder IAVGYVDDTQFVRFD [p5] showed IC50 equal to > 100 µM
